- System: PaTu-8988-T
- test_description: cells
- Parameters: ATPlite luminescence viability of PDAC cell lines, 11-dose single-agent curves, 4-parameter fit
- condition: Homo sapiens, PaTu 8988t, 72 h, read-out: EC50 [nM]
experimental_endpoint: EC50 (nM)
Please give a number only; it is taken to be in nM.

These recorded examples may help you get a feel for the data.
INSERT INTO assay_data (record_smiles, value_units, assay_result) VALUES
  ('Cc1ccc(NC(=O)c2ccc(CN3CCN(C)CC3)cc2)cc1Nc1nc(-c2cccnc2)cs1', 'nM', 4770),
  ('Cc1cc(Nc2ncc(Cl)c(Nc3ccccc3S(=O)(=O)C(C)C)n2)c(OC(C)C)cc1C1CCNCC1', 'nM', 1450);

Now for the compound whose EC50 we want.
Q: Recorded EC50 of "O=C1CCc2c(Oc3ccc4c(c3)[C@@H]3[C@H](O4)[C@H]3c3nc4cc(C(F)(F)F)ccc4[nH]3)ccnc2N1" , please.
Result: 2540

----------
- experimental_system: CDC42BPA ; Q5VT25-5;Q5VT25-4;Q5VT25;Q5VT25-2;Q5VT25-6;Q5VT25-3 (Homo sapiens, UniProt Q5VT25)
- Sequence (Q5VT25 whole entry): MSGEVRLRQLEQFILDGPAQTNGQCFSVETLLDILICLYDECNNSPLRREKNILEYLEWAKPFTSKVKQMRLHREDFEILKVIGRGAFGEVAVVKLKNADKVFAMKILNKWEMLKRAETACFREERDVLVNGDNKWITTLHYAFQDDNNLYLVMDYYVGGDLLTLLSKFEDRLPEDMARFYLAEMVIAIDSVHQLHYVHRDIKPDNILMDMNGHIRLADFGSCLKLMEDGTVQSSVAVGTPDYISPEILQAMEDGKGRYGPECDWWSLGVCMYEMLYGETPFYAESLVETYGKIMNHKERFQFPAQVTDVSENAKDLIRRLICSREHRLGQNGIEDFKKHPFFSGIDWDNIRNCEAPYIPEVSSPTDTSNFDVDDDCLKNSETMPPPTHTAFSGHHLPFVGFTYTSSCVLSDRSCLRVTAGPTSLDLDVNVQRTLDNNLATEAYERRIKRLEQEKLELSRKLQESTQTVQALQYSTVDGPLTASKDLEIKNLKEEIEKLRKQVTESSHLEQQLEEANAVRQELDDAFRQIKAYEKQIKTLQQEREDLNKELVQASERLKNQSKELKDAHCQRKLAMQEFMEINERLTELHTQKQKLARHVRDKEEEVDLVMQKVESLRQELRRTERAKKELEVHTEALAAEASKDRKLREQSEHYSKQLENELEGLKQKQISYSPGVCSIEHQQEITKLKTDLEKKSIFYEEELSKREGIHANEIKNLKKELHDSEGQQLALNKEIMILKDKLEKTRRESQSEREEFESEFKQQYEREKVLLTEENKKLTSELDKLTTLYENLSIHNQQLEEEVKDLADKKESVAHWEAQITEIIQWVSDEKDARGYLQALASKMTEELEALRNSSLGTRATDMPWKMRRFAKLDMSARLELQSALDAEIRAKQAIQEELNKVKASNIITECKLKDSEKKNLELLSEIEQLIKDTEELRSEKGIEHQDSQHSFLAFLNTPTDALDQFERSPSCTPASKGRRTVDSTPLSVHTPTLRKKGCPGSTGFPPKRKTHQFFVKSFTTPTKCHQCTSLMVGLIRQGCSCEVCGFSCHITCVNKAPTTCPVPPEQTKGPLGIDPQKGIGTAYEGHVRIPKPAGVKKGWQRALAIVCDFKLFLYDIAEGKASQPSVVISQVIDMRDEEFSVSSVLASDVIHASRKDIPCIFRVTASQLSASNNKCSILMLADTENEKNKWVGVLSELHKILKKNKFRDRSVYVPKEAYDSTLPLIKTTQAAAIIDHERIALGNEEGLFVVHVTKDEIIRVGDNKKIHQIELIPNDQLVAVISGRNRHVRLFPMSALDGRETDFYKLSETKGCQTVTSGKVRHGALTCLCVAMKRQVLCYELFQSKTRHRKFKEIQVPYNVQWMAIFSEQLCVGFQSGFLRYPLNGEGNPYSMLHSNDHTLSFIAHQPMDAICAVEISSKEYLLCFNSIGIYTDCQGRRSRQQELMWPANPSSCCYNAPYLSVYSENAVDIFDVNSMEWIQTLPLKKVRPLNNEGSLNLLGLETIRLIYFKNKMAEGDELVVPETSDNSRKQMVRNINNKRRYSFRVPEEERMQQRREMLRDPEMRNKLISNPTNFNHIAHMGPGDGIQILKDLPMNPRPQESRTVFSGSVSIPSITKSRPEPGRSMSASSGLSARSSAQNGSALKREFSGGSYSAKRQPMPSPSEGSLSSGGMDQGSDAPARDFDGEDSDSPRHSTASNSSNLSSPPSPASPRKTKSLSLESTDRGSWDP
- test_description: biochemical
- Parameters: species or system AsPC-1; Kinobeads competition pulldown in AsPC-1 lysate with LC-MS/MS label-free quantification; apparent Kd
- Description: This was followed by incubation with Kinobeads ε (17.5 µl of settled beads) for 30 min at 4 °C to enrich kinases. […] Enriched proteins were reduced with 50 mM DTT in 8 M urea, 40 mM Tris-HCl, pH 7.4 for 30 min at room temperature, and alkylated with 55 mM chloroacetamide. […] Residual binding of proteins was calculated from LFQ intensities as the ratio between drug doses and vehicle. […] Only kinases quantified with at least 4 unique peptides in the vehicle experiment were considered. […]
experimental_endpoint: pKd
Keep in mind that pKd stands for -log10 of concentration in molar terms.

Q: Recorded pKd of Nc1nn2cc(F)cnc2c1C(=O)Nc1cncc(F)c1N1CCC(C(=O)N2CCN(C3COC3)CC2)CC1 [Gartisertib] , please.
Result: 7.81

----------
- System: Colo-357
- test_description: cells
- Design: ATPlite luminescence viability of PDAC cell lines, 11-dose single-agent curves, 4-parameter fit
- condition: Homo sapiens, COLO357, 72 h, read-out: EC50 [nM]
experimental_endpoint: EC50 (nM)
Please give a number only; it is taken to be in nM.

These recorded examples may help you get a feel for the data.
INSERT INTO results (record_smiles, value_units, assay_result) VALUES
  ('CC(=O)c1c(C)c2cnc(Nc3ccc(N4CCNCC4)cn3)nc2n(C2CCCC2)c1=O', 'nM', 5610),
  ('O=C(Cc1ccc(-c2ccc(OCCN3CCOCC3)cc2)cn1)NCc1ccccc1', 'nM', 37.7),
  ('C1=N/C2=N/c3ccc(OCCN4CCCC4)c(c3)COC/C=C/COCc3cccc(c3)C(=C1)N2', 'nM', 1610);

Q: Recorded EC50 of "C[C@@H]1CN(C(=O)c2ccc(NC(=O)c3cc(O[C@H](C)c4c(Cl)ccc(F)c4Cl)c(N)nn3)cc2)C[C@H](C)N1" , please.
Result: 2870

Q: // same read-out, input: "COc1cc2ncnc(Nc3ccc(F)c(Cl)c3)c2cc1NC(=O)/C=C/CN1CCCCC1"
Result: 909

Q: // same read-out, input: "COc1cc2c(Oc3ccc4[nH]c(C)cc4c3F)ccnc2cc1OCC1(N)CC1"
Result: 2350

Q: // same read-out, input: "Cc1ccc(C(=O)OCc2ccc([C@@H](CN)C(=O)Nc3ccc4cnccc4c3)cc2)c(C)c1"
Result: 5250

Q: // same read-out, input: "CN(C)C/C=C/C(=O)Nc1cc2c(Nc3ccc(F)c(Cl)c3)ncnc2cc1O[C@H]1CCOC1"
Result: 1.6
